Listed here are molecules together with their documented viability, T/C.
- System: HOP-62 complex spheroids with HUVEC/MSC, viability
- experiment: Anticancer human tumor HOP-62 cell line growth inhibition [RAS];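 also: spheroids exposed to agents for seven days before readout; 100% = DMSO vehicle control viability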
- condition info: second compound 0.3 µM; first compound 0.316 µM; hits give low values
Expressed in %, but write only the number.

Reference set (3 entries):
| molecule | target entity | viability, T/C / % |
| --- | --- | --- |
| O=C(c1ccc(F)c(F)c1Nc1ccc(I)cc1F)N1CC(O)([C@@H]2CCCCN2)C1 + CCn1c(-c2cccnc2C(C)OC)c2c3cc(ccc31)N1CCOC(CC(NC(=O)C(C(C)C)N(C)C(=O)C3(F)CCN(C(=O)C#CC(C)(C)N(C)C)CC3)C(=O)N3CCCC(N3)C(=O)OCC(C)(C)C2)C1 | HOP-62 complex spheroids with HUVEC/MSC, viability | 31.4 |
| Nc1ccn(C2OC(CO)C(O)C2(F)F)c(=O)n1 (centres undefined) + CCn1c(-c2cc(N3CCN(C)CC3)cnc2C(C)OC)c2c3cc(ccc31)-c1csc(n1)CC(NC(=O)C1CC1C)C(=O)N1CCCC(N1)C(=O)OCC(C)(C)C2 | HOP-62 complex spheroids with HUVEC/MSC, viability | 25.9 |
| CC(Nc1ccc2c(c1)OCCn1cc(N3C(=O)OCC3C(F)F)nc1-2)C(N)=O (centres undefined) + CCn1c(-c2cccnc2C(C)OC)c2c3cc(ccc31)N1CCOC(CC(NC(=O)C(C(C)C)N(C)C(=O)C3(F)CCN(C(=O)C#CC(C)(C)N(C)C)CC3)C(=O)N3CCCC(N3)C(=O)OCC(C)(C)C2)C1 | HOP-62 complex spheroids with HUVEC/MSC, viability | 47.9 |

# get_value(readout='viability, T/C', item= Cc1nc(N2CCC3(CC2)COC(C)C3N)c(CO)nc1Sc1ccnc(N)c1Cl (centres undefined) + CCn1c(-c2cc(N3CCN(C)CC3)cnc2C(C)OC)c2c3cc(ccc31)-c1csc(n1)CC(NC(=O)C1CC1C)C(=O)N1CCCC(N1)C(=O)OCC(C)(C)C2 ) 28.8
